- target_desc: Kinase insert Domain containing Receptor (KDR) (Homo sapiens, UniProt P35968)
- Sequence (P35968 834-1162 limits assumed): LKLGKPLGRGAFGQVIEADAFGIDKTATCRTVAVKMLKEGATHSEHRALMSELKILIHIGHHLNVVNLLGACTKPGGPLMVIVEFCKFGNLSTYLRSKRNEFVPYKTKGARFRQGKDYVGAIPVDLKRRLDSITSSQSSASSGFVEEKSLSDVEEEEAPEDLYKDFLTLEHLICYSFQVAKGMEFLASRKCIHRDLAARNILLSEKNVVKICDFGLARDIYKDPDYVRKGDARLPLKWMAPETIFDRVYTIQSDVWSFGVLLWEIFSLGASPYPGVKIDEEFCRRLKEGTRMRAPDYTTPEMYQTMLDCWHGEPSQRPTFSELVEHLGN
Catalogue of pIC50 readings, one per entry.
Expect pIC50 as a plain number equal to -log10 of the molar concentration.

CCOc1cc2ncc(C#N)c(Nc3ccc4c(c3)OCO4)c2cc1OCC [Example 98]: 5.58
CCOc1cc2ncc(C#N)c(Nc3ccc4c(c3)OCCO4)c2cc1OCC [Example 105]: 4.12

Now consider the entry below.
Measured pIC50 for this entry CCOc1cc2ncc(C#N)c(Nc3ccc4c(c3)NCC4)c2cc1OCC [Example 96] on Kinase insert Domain containing Receptor (KDR) (Homo sapiens, UniProt P35968): 5.10

----------
- target_desc: Epidermal Growth Factor Receptor Kinase (EGF-R) (Homo sapiens)
- Construct: EGFR cDNA encoding amino acids 645-1186 preceded by Met-Ala-(His)6; Met-Ala-(His)6 (N)
- Sequence (P00533 669-1210): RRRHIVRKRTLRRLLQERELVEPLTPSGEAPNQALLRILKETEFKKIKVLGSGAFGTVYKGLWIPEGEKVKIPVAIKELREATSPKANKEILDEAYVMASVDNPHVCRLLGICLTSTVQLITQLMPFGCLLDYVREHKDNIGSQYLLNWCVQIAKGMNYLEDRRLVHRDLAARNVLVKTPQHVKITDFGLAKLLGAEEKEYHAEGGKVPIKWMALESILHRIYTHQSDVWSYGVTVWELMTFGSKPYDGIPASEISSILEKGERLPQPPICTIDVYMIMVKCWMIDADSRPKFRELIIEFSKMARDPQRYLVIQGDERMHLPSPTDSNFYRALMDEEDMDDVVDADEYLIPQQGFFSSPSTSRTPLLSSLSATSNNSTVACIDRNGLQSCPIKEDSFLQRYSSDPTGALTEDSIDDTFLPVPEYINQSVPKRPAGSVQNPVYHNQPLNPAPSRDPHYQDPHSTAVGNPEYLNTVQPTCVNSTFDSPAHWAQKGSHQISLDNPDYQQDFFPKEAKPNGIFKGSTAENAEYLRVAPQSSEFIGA
- assay_procedure: Inhibition of Epidermal Growth Factor Receptor Kinase (EGF-R) Using Recombinant Enzyme
- condition_notes: recombinant enzyme, RR-SRC peptide substrate
property_name: IC50

Here's what some known entries look like.
CCOc1cc2ncc(C#N)c(Nc3ccc4c(c3)C(=O)OC4)c2cc1OCC: > 1000 nM
CCOc1cc2ncc(C#N)c(Nc3ccc4c(c3)C(=O)NCC(=O)N4C)c2cc1OCC: > 1000 nM
CCOc1cc2ncc(C#N)c(Nc3ccc4cn[nH]c4c3)c2cc1OC: > 500 nM
CCOc1cc2ncc(C#N)c(Nc3ccc4c(c3)NCC4)c2cc1OCC: > 10000 nM

// `CCOc1cc2ncc(C#N)c(Nc3ccc4cc[nH]c4c3)c2cc1OCC` : IC50 value = > 1000 nM

----------
Entries and their pIC50 values follow.
- target_desc: Mitogen Activated Protein Kinase (Mek-Erk)
- assay_procedure: Mitogen Activated Protein Kinase (MAPK) assay, coupled Mek-Erk
- Type: biochemical, human
- condition_notes: MBP or Myc peptide substrate, pH 7.4
- Description: Mitogen Activated Protein Kinase (MAPK) Assay […] The reaction was run as follows in 50 mM Tris kinase buffer, pH 7.4 in a reaction volume of 50 ul. […] The filters or MTP were briefly air dried before addition of scintillant and samples were counted in the appropriate scintillation counter set up for reading ^33 P isotope. […]
Where a name gives a salt, the structure may show the parent alone.
Schema: pIC50 number; meaning minus log10 of the concentration expressed in molar units.

COc1cc2ncc(C#N)c(Nc3cccc4cnccc34)c2cc1OC: 4.05
COc1ccc2c(Nc3ccc4cn[nH]c4c3)c(C#N)cnc2c1: 5.22
COc1cc2c(Nc3ccc4nn[nH]c4c3)c(C#N)cnc2c(OC)c1OC: 4.46
CCOc1cc2ncc(C#N)c(Nc3ccc4c(c3)C(=O)NC4=O)c2cc1OCC: 4.46
N#Cc1cnc2cc3c(cc2c1Nc1ccc2cn[nH]c2c1)OCCO3: 4.46
COc1cc2ncc(C#N)c(Nc3ccc4cn[nH]c4c3)c2cc1OCCCN1CCOCC1 [Example 139, hydrochloride]: 4.82
COc1ccc2c(Nc3ccc4[nH]ccc4c3)c(C#N)cnc2c1: 5.52
COc1cc2c(Nc3ccc4cn[nH]c4c3)c(C#N)cnc2cc1OCCN(C)C: 5.10
COc1ccc2ncc(C#N)c(Nc3ccc4nn[nH]c4c3)c2c1: 4.52
COc1cc2ncc(C#N)c(Nc3cccc4ncccc34)c2cc1OC: 4.05

Entry CCOc1cc2ncc(C#N)c(Nc3ccc4ncsc4c3)c2cc1OCC [Example 97, HCl Salt] , pIC50 reported as 4.26

Short answer for `COc1cc2ncc(C#N)c(Nc3ccc4cn[nH]c4c3)c2cc1OC` : pIC50 was 6.30

The recorded pIC50 for entry `COc1cc2ncc(C#N)c(Nc3cccc4c3CCCC4)c2cc1OC` equals 5.40

Measured pIC50 of `COc1ccc2ncc(C#N)c(Nc3ccc4cn[nH]c4c3)c2c1` : 5.52

Measured pIC50, `CCOc1cc2ncc(C#N)c(Nc3ccc4cn[nH]c4c3)c2cc1OC` : 4.60

----------
- target_desc: Epithelial Cell Kinase (ECK) (Homo sapiens)
- Sequence (P29317 24-976): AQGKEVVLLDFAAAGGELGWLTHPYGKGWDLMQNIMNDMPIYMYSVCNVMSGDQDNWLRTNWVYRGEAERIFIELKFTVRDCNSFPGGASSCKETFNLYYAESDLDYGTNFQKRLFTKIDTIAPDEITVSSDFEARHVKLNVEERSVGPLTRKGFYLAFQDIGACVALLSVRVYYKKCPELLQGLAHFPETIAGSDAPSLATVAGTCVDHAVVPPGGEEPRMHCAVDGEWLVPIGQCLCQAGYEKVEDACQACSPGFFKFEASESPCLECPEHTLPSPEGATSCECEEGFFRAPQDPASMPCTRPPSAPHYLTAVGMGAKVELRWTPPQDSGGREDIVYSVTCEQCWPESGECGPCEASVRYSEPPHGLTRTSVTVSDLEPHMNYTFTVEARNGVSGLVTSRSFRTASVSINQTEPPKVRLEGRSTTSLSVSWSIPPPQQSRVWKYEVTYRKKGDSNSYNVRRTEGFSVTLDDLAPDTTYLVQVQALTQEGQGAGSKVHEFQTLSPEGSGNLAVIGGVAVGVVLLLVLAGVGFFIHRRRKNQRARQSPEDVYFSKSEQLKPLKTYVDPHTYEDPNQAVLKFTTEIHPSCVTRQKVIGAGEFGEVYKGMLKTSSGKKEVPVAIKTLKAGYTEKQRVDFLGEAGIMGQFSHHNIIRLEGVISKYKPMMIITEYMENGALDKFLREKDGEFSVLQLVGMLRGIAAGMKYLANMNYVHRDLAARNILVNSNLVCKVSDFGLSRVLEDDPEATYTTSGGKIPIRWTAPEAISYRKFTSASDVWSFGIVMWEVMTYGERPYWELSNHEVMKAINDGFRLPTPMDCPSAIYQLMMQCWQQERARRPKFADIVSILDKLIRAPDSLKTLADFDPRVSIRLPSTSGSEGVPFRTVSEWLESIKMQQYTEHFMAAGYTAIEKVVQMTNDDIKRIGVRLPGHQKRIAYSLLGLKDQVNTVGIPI
pIC50: −log10 of the molar value.
property_name: pIC50

Record summary for `CCOc1cc2ncc(C#N)c(Nc3ccc4c(c3)NCC4)c2cc1OCC` : reported pIC50 = < 4.27
